Hey, just so you know, these numbers are from paper PMC9913425.

Each entry below carries its recorded Apoptosis (%) Necrosis.
- Tested on: Jurkat cells
- assay.info: Apoptosis/necrosis induction (Annexin V Alexa Fluor488, 7AAD staining)
- Type: cell-based
- condition: compound at IC50 concentration, incubation 2 h
Kindly provide the numeric value in % only, without the unit symbol.

Observe how each entry below is paired with its result.
- compound: "Cn1cc[n+](CCCCCCOC(=O)[C@]23CCC(C)(C)C[C@H]2C2=CC[C@@H]4[C@@]5(C)CC[C@H](O)C(C)(C)[C@@H]5CC[C@@]4(C)[C@]2(C)CC3)c1.F[P-](F)(F)(F)(F)F [13c]"
  unit.name: "%"
  Apoptosis (%) Necrosis: 1.78
- compound: "CC1(C)CC[C@]2(C(=O)OCCCCCC[N+]3(C)CCCC3)CC[C@]3(C)C(=CCC4[C@@]5(C)CC[C@H](O)C(C)(C)C5CC[C@]43C)C2C1 (some centres unmarked) [12c]"
  unit.name: "%"
  Apoptosis (%) Necrosis: 0.99
- compound: "C[n+]1ccn(CCCCCCOC(=O)[C@]23CCC(C)(C)CC2C2=CCC4[C@@]5(C)CC[C@H](O)C(C)(C)C5CC[C@@]4(C)[C@]2(C)CC3)c1.O=C([O-])c1ccccc1O (some centres unmarked) [13f]"
  unit.name: "%"
  Apoptosis (%) Necrosis: 11.07
- compound: "CC1(C)CC[C@]2(C(=O)OCCCCCC[N+](C)(C)CCO)CC[C@]3(C)C(=CCC4[C@@]5(C)CC[C@H](O)C(C)(C)C5CC[C@]43C)C2C1 (some centres unmarked) [12f]"
  unit.name: "%"
  Apoptosis (%) Necrosis: 54.23

Report measured Apoptosis (%) Necrosis on Jurkat cells; entry: Cn1cc[n+](CCCCCCOC(=O)C23CCC(C)(C)CC2C2=CCC4C5(C)CCC(O)C(C)(C)C5CCC4(C)C2(C)CC3)c1.[F][Sb-]([F])([F])([F])([F])[F] (centres unmarked) [13b] 4.68

---

- System: HL60
- assay.info: In vitro cytotoxicity, IC50 by flow cytometry (Guava ViaCount)
- Assay type: cell-based, human
- condition: HL60 cells
Each entry below carries its recorded IC50.
Kindly provide the numeric value in nM only, without the unit symbol.

- compound: "Cn1cc[n+](CCCCCCOC(=O)[C@]23CCC(C)(C)C[C@H]2C2=CC[C@@H]4[C@@]5(C)CC[C@H](O)C(C)(C)[C@@H]5CC[C@@]4(C)[C@]2(C)CC3)c1.F[P-](F)(F)(F)(F)F [13c]"
  parameter: "IC50"
  unit.name: "nM"
  obs.value: 3
- compound: "CC1(C)CCC2(C(=O)[O-])CCC3(C)C(=CCC4C5(C)CCC(O)C(C)(C)C5CCC43C)C2C1.CC[n+]1ccn(C)c1 (centres unmarked) [15a]"
  parameter: "IC50"
  unit.name: "nM"
  obs.value: 34
- compound: "CCn1cc[n+](C)c1.C[C@H]1[C@H](C)CC[C@]2(C(=O)[O-])CC[C@]3(C)C(=CC[C@@H]4[C@@]5(C)CC[C@H](O)C(C)(C)[C@@H]5CC[C@]43C)[C@H]12 [16a]"
  parameter: "IC50"
  unit.name: "nM"
  obs.value: 18

Answer with the recorded IC50 for the compound listed here: C[n+]1ccn(CCCCCCOC(=O)[C@]23CCC(C)(C)CC2C2=CCC4[C@@]5(C)CC[C@H](O)C(C)(C)C5CC[C@@]4(C)[C@]2(C)CC3)c1 (some centres unmarked) [13a] 2

Answer with the recorded IC50 for the compound listed here: C[n+]1ccn(CCCCCCOC(=O)[C@]23CCC(C)(C)CC2C2=CCC4[C@@]5(C)CC[C@H](O)C(C)(C)C5CC[C@@]4(C)[C@]2(C)CC3)c1.O=S(=O)([O-])c1ccccc1 (some centres unmarked) [13e] 4
